- Measurement Target: hGalectin-3 (Homo sapiens)
- Construct: made in house
- Sequence (P17931 whole entry): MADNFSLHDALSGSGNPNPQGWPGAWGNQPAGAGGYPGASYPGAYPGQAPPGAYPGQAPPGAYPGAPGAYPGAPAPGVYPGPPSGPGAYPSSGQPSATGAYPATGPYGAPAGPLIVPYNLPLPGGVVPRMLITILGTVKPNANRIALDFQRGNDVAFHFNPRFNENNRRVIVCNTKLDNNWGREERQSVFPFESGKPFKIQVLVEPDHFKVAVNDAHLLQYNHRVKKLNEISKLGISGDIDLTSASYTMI
- Assay Text: Gal-3 ELISA assay (hGalectin-3 neutralization binding to asialofetuin)
- Condition Description: biotin-tagged hGalectin-3 15 nM, ASF-coated plate; read-out: hGal3 IC50
pIC50: −log10 of the molar value.
Metric: pIC50

[[record]]
molecule = "COc1ccc(N2C[C@@H]3C[C@H]2CN3C(=O)[C@@H]2O[C@H](CO)[C@H](O)[C@H](n3cc(-c4cccc(F)c4)nn3)[C@H]2O)cc1 [Example 19]"
metric = "pIC50"
assay_result = 6.60

[[record]]
molecule = "O=C([C@@H]1O[C@H](CO)[C@H](O)[C@H](n2cc(-c3cccc(F)c3)nn2)[C@H]1O)N1CCN(c2ccc3[nH]c(=O)[nH]c3c2)CC1 [Example 9]"
metric = "pIC50"
assay_result = 6.41

[[record]]
molecule = "O=C([C@@H]1O[C@H](CO)[C@H](O)[C@H](n2cc(-c3cccc(F)c3)nn2)[C@H]1O)N1C[C@H]2C[C@@H]1CN2c1ccc2c(c1)OCO2 [Example 32]"
metric = "pIC50"
assay_result = 6.74

[[record]]
molecule = "O=C([C@@H]1O[C@H](CO)[C@H](O)[C@H](n2cc(-c3cccc(F)c3)nn2)[C@H]1O)N1CCN(c2ccc(O)cc2)CC1CO (single isomer, unassigned) [Example 34b]"
metric = "pIC50"
assay_result = 6.35

[[record]]
molecule = "CC1CN(c2ccc(O)cc2)CCN1C(=O)[C@@H]1O[C@H](CO)[C@H](O)[C@H](n2cc(-c3cccc(F)c3)nn2)[C@H]1O (single isomer, unassigned) [Example 36]"
metric = "pIC50"
assay_result = 6.47


Cited source for all entries: patent US12286424B2
